Assay: Binary supramolecular self-assembly systems of polymer and target: guest concentration over incubation time (Comparative Example 2)
Assay type: physicochemical
Conditions: binary system with 0.5% polymer 107; incubation 6 h
Endpoint: Concentration of the target in the solution measured after different incubation time
Give the value; after it, write the unit.

O=C1C[C@@H](c2ccc(O)cc2)Oc2cc(O)cc(O)c21: 139100 ng/mL

Moving on to another compound below.
[ask] Fill blank: measured Concentration of the target in the solution measured after different incubation time of the compound CCCNS(=O)(=O)Nc1ncnc(OCCOc2ncc(Br)cn2)c1-c1ccc(Br)cc1 is ____.
[reply] 39300 ng/mL

----------
Test: Binary supramolecular self-assembly systems of polymer and target: guest concentration over incubation time (Comparative Example 2)
Format: physicochemical
Conditions: binary system with 0.5% polymer 103; incubation 3 h
Endpoint: Concentration of the target in the solution measured after different incubation time (ng/mL)
Write down the numeric answer in ng/mL and omit the unit.

[ask] Entry CCCSc1nc(N[C@@H]2C[C@H]2c2ccc(F)c(F)c2)c2nnn([C@@H]3C[C@H](OCCO)[C@@H](O)[C@H]3O)c2n1 : reported Concentration of the target in the solution measured after different incubation time = ?
[reply] 20400

[ask] Dear colleague, I am looking for the recorded Concentration of the target in the solution measured after different incubation time of the following compound: COC1=CC(=O)C[C@@H](C)[C@]12Oc1c(Cl)c(OC)cc(OC)c1C2=O
[reply] 39800

[ask] Could you share which Concentration of the target in the solution measured after different incubation time value was measured for CC1(C)CCC(CN2CCN(c3ccc(C(=O)NS(=O)(=O)c4ccc(NCC5CCOCC5)c([N+](=O)[O-])c4)c(Oc4cnc5[nH]ccc5c4)c3)CC2)=C(c2ccc(Cl)cc2)C1 ?
[reply] 72900
